Hello, the source for this data is patent US11111264B2, in case you need it.

assay: Approximate solubility of Compound 1 in various solvents (stepwise solvent addition); assay type: physicochemical; settings: aqueous buffer, thermodynamic from solid; NaOH aq 0.1M; 60° C.; read-out: Solubility [S, mg/mL]
assay endpoint: solubility

Prompt: Read off the recorded solubility for Cc1nc(N)c2c(C(N)=O)cn([C@@H]3O[C@H](CO)[C@@H](O)[C@H]3O)c2n1
Completion: ~9 mg/mL

###

assay: Approximate solubility of Compound 1 in various solvents (stepwise solvent addition); format: physicochemical; conditions: aqueous with cosolvent or surfactant or cyclodextrin, thermodynamic from solid; THF/water 4:1 v/v; RT; read-out: Solubility [S, mg/mL]
assay endpoint: solubility

Prompt: Read off the recorded solubility for Cc1nc(N)c2c(C(N)=O)cn([C@@H]3O[C@H](CO)[C@@H](O)[C@H]3O)c2n1
Completion: ~15 mg/mL

###

assay: Exact solubility of Compound 1 Form A in selected solvent systems (1 day suspension, HPLC); format: physicochemical; details: aqueous with cosolvent or surfactant or cyclodextrin, thermodynamic from solid, Ethanol/NaOH aq 0.01M 1:3 v/v, 60° C.
assay endpoint: solubility at 1 day (mg/mL)
The figure you give is taken to be in mg/mL; do not add the unit.

Prompt: Read off the recorded solubility at 1 day for Cc1nc(N)c2c(C(N)=O)cn([C@@H]3O[C@H](CO)[C@@H](O)[C@H]3O)c2n1
Completion: 15.3

###

assay: Exact solubility of Compound 1 Form A in selected solvent systems (1 day suspension, HPLC); type: physicochemical; details: DMSO/0.1 M aqueous NaOH 1:2 v/v, aqueous with cosolvent or surfactant or cyclodextrin, thermodynamic from solid, DMSO/NaOH aq 0.1M 1:2 v/v, 24° C.
assay endpoint: solubility at 1 day

Prompt: Read off the recorded solubility at 1 day for Cc1nc(N)c2c(C(N)=O)cn([C@@H]3O[C@H](CO)[C@@H](O)[C@H]3O)c2n1
Completion: 12.5 mg/mL

###

assay: Approximate solubility of Compound 1 in various solvents (stepwise solvent addition); format: physicochemical; conditions: aqueous buffer, thermodynamic from solid; NaOH aq 0.5M; RT; read-out: Solubility [S, mg/mL]
assay endpoint: solubility

Prompt: Read off the recorded solubility for Cc1nc(N)c2c(C(N)=O)cn([C@@H]3O[C@H](CO)[C@@H](O)[C@H]3O)c2n1
Completion: ~16 mg/mL

###

test: Approximate solubility of Compound 1 in various solvents (stepwise solvent addition); format: physicochemical; conditions: aqueous buffer, thermodynamic from solid; NaOH aq 0.5M; 60° C.; read-out: Solubility [S, mg/mL]
assay endpoint: solubility

Prompt: Read off the recorded solubility for Cc1nc(N)c2c(C(N)=O)cn([C@@H]3O[C@H](CO)[C@@H](O)[C@H]3O)c2n1
Completion: ~38 mg/mL

###

Test: Approximate solubility of Compound 1 in various solvents (stepwise solvent addition)
Format: physicochemical
Conditions: aqueous buffer, thermodynamic from solid; NaOH aq 0.1M; RT; read-out: Solubility [S, mg/mL]
Protocol: To determine approximate solubility of Compound 1, solvent was added in steps to the solid material (about 20 to 100 mg). The solubility values were rough approximations. Therefore, these values were used solely for the preliminary design of subsequent crystallization experiments.
assay endpoint: solubility

Prompt: Read off the recorded solubility for Cc1nc(N)c2c(C(N)=O)cn([C@@H]3O[C@H](CO)[C@@H](O)[C@H]3O)c2n1
Completion: ~3 mg/mL
